Molecular target: LSD1 (Homo sapiens, UniProt O60341)
Construct: made in house; host or cells: Escherichia coli Rosetta 2 (pET15b)
Experiment: HRP-coupled fluorescence LSD1 demethylation activity and inhibition assay, substrate H3_1-21 K4(Me)
Format: biochemical
Settings: supplement sheet SMILES and Activity; read-out: IC50
Bridge positions count the residues as written; N and C are the ends. Square brackets hold non-standard residues; d marks the D form. Peptide text beside a SMILES is read from it. Cit = NC(=O)NCCC[C@H](N)C(=O)O
METRIC_NAME: IC50
Express the reported value numerically, then name its unit.

Consider the compound CSCC[C@@H]1NC(=O)[C@@H](NC(=O)[C@H](CCCNC(N)=O)NC(=O)[C@H](C)N)CCC(=O)NCCCC[C@@H](C(=O)N[C@@H](C)C(=O)N[C@@H](CCCNC(=N)N)C(=O)N[C@@H](CCCCN)C(=O)N[C@@H](CO)C(=O)N[C@H](C(N)=O)[C@@H](C)O)NC(=O)[C@H](CCC(N)=O)NC1=O [Peptide 33] (H-A[Cit]EMQKARKST-NH2; lactam 3-6) and give its measured IC50. 13 µM
